assay: Antagonist activity P2X1 receptor in Apyrase pre-treated human platelets assessed as inhibition of collagen-induced platelet aggregation pre-incubated for 30 mins before collagen stimulation by aggregometry
endpoint label: IC50 (nM)

smiles_entry=O=C(Nc1cc(Cl)cc(Cl)c1)c1cc(Cl)ccc1O unit_abbreviation=nM observed_result=3030

[1] O=C(Nc1cc(C(F)(F)F)cc(C(F)(F)F)c1)c1ccccc1
[2] O=S(=O)(Nc1cc(C(F)(F)F)cc(C(F)(F)F)c1)c1cc(Cl)ccc1O
[3] O=C(Nc1cc(C(F)(F)F)cc(C(F)(F)F)c1)c1ccc(Cl)cc1O
Parameters: sort_field (IC50), sort_dir (desc). The labels, placed in the requested order, form the answer. 2, 1, 3

From: BindingDB's records for doi:10.1021/acs.jmedchem.0c00435
